- tested_system: T1, cynomolgus monkey Nectin-4 (cynomolgus monkey, UniProt Q96NY8 32-510 (human entry))
- T1 construct: Transiently expressed on 293T cells; also called Cyno Nectin-4
- T1 chain: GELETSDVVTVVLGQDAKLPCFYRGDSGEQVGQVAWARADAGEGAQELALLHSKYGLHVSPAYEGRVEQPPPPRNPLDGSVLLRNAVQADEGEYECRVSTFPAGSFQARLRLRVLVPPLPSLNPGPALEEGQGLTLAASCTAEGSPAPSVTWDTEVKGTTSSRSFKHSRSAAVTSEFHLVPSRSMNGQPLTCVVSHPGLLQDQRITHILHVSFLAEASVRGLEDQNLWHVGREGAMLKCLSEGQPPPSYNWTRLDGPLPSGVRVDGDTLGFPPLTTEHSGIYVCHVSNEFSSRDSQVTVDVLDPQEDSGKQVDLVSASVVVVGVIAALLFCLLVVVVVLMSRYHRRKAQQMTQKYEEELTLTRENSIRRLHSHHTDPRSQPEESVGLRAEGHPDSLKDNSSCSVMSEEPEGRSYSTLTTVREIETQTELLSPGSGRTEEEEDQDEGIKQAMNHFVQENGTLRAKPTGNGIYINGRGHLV
- measurement_description: flow cytometry, transfected 293T cells; +++ EC50 less than 5 nM
measure_name: EC50

Qu. Quick one: EC50 of N4_mAb 1 (antibody, human IgG1, V domains shown, Tested as chimera (murine variable regions, human IgG1/kappa constants); not shown: human IgG1 constant region (Uniprot P01857); human Kappa light chain constant region (UniProt P01834)) VH: QVQLKQSGPGLVQPSQSLSITCTVSGFSLTNYGVNWVRQPPGKGLEWLGVIWSGGSTDYNAAFISRLSISKDISKSQVFFKMNSLQADDTAKYYCAREGYDGYAMDYWGQGTSVTVSS VL: DIQMTQSPASLSVSVGETVTITCRASENIFSSLAWYQQKQGKSPQLLVYGATNLADGVPSRFSGSGSGTQYSLKINSLQSEDFGTYWCQHFWGNPWTFGGGTKLEIK ?
Ans. < 5 nM
